Tested on: Oryzias latipes / Nephotettix cincticeps
experimentalDetails: Fish safety coefficient calculated from fish toxicity and insecticidal activity (Test Example 1)
runConditions: TLm48 (Oryzias latipes) divided by concentration in water at LC50 for N. cincticeps
metric: Safety coefficient to fishes (a)/(b)

1. CC1(C)C(C=C(Cl)Cl)C1C(=O)OCc1cccc(Oc2ccccc2)c1 (racemic)    0.8
2. CC1(C)C(C=C(Cl)Cl)C1C(=O)OC(C#N)c1cccc(Oc2ccc(F)cc2)c1 (racemic) [(E)]    0.3
3. CC1(C)C(C=C(Cl)Cl)C1C(=O)OC(C#N)c1cccc(Oc2ccccc2)c1 (racemic) [Reference compound (D)]    2.6
4. CC1(C)C(C=C(Cl)Cl)C1C(=O)OC(C#N)c1cccc(Oc2ccc(Br)cc2)c1 (racemic)    56.3
5. CC1(C)[C@H](C=C(Cl)Cl)[C@H]1C(=O)OC(C#N)c1cccc(Oc2ccc(Br)cc2)c1 (relative stereo)    857.1
6. CNC(=O)Oc1ccc(C)c(C)c1    17.0
